system: ZEAMX; assay: F. Post-emergence effects on crop plants (Tables F); type: in vivo, Zea mays; conditions: application rate 320 g/ha, crop plant
valueType: post-emergence activity against ZEAMX in %

COCc1nn2c(c1C(=O)N1CCCC1Cc1ccccc1F)CCC2 (racemic)	0%
COCc1nn(C)cc1C(=O)N1CCCC1Cc1ccccc1F (racemic)	0%
COCc1c(C(=O)N2CCCC2(C)Cc2ccccc2F)cnn1C (single isomer, unassigned)	0%

---

tested on: POAAN; test: A. Herbicidal pre-emergence action on harmful plants (Tables A); assay type: in vivo, Poa annua; details: application rate 320 g/ha; Table A7b
valueType: pre-emergence activity against POAAN (%)

Cn1cc(C(=O)N2CCCC2Cc2ccc(F)cc2F)c(COc2ccccc2)n1 (racemic) [Example I-008]	100
COCCOCCn1cc(C(=O)N2CCCC2Cc2ccccc2F)c(COC)n1 (racemic) [Example I-030]	90
COCc1nn(C)cc1C(=O)N1CCCC1Cc1ccccc1C (single isomer, unassigned) [Example I-084]	100
COCc1nn(C(=O)OC(C)(C)C)cc1C(=O)N1CCCC1Cc1ccccc1F (racemic) [Example I-040]	100
COCc1nn(C)cc1C(=O)N1CCCC1Cc1ncccc1F (racemic) [Example I-015]	100
COCc1nn(CCC(OC)OC)cc1C(=O)N1CCCC1Cc1ccccc1F (racemic) [Example I-048]	90
COCc1c(C(=O)N2CCCC2Cc2c(F)cccc2F)cnn1C (racemic) [Example I-124]	100
COCc1c(C(=O)N2CCCC2Cc2ccc(F)cc2F)cnn1C (racemic) [Example I-158]	100
